Each recorded value in this set is attributed to patent US20240368120A1.

assay: Rat pharmacokinetics, intravenous dosing; assay type: in vivo, Sprague-Dawley rats; settings: male, Sprague-Dawley, IV bolus dosing at 3.0 mg/kg, plasma
measured parameter: AUC

Just so you know, measured AUC for COc1cc(C(=O)O)cc2c1nc(CN1CCC(c3cccc(OCc4ccc(C#N)cc4F)n3)CC1)n2Cc1cncs1 came out at < 500 ng·h/mL

###

test: Metabolic stability in human hepatocytes; type: in vitro ADME; conditions: cryopreserved hepatocytes, 1 μM, 1×10^6 cells/mL, 0-240 min
measured parameter: CLint scaled at 1 μM (mL/min/kg)
Kindly provide the numeric value in mL/min/kg only, without the unit symbol.

Just so you know, measured CLint scaled at 1 μM for COc1cc(C(=O)O)cc2c1nc(CN1CCC(c3cccc(OCc4ccc(C#N)cc4F)n3)CC1)n2C[C@@H]1CCO1 came out at 6.18

Just so you know, measured CLint scaled at 1 μM for COc1cc(C(=O)O)cc2c1nc(CN1CCC(c3cccc(OCc4ccc(C#N)cc4F)n3)CC1)n2Cc1cncs1 came out at 14.2

###

target: human GLP-1R receptor (Homo sapiens, UniProt P43220); construct: expressed in transfected cells; assay: GLP-1R low expression cell assay (cAMP TR-FRET, CHO-K1_hGLP-1Rlow_clone10 cells); assay type: cell-based; settings: maximum activation relative to control GLP-1 peptide agonist
Sequence (P43220 24-463): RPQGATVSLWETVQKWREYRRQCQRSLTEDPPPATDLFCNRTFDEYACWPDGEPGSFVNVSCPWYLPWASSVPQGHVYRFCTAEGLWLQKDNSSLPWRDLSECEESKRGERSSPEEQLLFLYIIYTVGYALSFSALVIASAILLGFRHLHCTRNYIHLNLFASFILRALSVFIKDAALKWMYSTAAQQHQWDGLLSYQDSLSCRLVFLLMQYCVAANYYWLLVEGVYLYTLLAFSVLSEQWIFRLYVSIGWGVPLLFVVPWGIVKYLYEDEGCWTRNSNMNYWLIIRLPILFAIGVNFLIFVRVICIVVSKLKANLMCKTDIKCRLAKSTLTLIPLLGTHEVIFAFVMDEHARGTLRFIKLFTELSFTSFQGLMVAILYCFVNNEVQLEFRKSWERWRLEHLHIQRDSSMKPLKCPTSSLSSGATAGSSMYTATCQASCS
measured parameter: Emax

Recorded Emax, per entry:
smiles input	assayed target	Emax
COc1cc(C(=O)O)nc2c1nc(CN1CCC(c3cccc(OCc4ccc(C#N)cc4F)n3)CC1)n2C	human GLP-1R receptor (Homo sapiens, UniProt P43220)	> 85%
COc1cc(C(=O)O)cc2c1nc(CN1CCC(c3cccc4c3OC[C@@H](c3ccc(Cl)cc3F)O4)CC1)n2C	human GLP-1R receptor (Homo sapiens, UniProt P43220)	50 to 85%

// below: Emax requested for another compound
For CCOc1cc(C(=O)O)cc2c1nc(CN1CCC(c3cccc4c3O[C@H](c3ccc(Cl)cc3F)CO4)CC1)n2C on human GLP-1R receptor (Homo sapiens, UniProt P43220), measured Emax was > 85%

###

assay: Rat pharmacokinetics, oral dosing; type: in vivo, Sprague-Dawley rats; settings: male, Sprague-Dawley, plasma, oral dosing at 3 mg/kg
measured parameter: bioavailability

smiles input	bioavailability
COc1c(F)c(C(=O)O)cc2c1nc(CN1CCC(c3cccc(OCc4ccc(C#N)cc4F)n3)CC1)n2C	50 to 85%

Just so you know, measured bioavailability for COc1cc(C(=O)O)c(F)c2c1nc(CN1CCC(c3cccc(OCc4ccc(Cl)cc4F)n3)CC1)n2C came out at 50 to 85%

Just so you know, measured bioavailability for COCCOc1cc(C(=O)O)cc2c1nc(CN1CCC(c3cccc4c3O[C@@](C)(c3ccc(Cl)cn3)O4)CC1)n2C came out at < 25%

Just so you know, measured bioavailability for COc1cc(C(=O)O)cc2c1nc(CN1CC[C@@H](c3cccc4c3O[C@@](C)(c3ccc(Cl)cn3)O4)[C@@H]3C[C@@H]31)n2C[C@@H]1CCO1 came out at 25 to 50%

Just so you know, measured bioavailability for Cn1c(CN2CCC(c3ccc(F)c(OCc4ccc(Cl)cc4F)c3)CC2)nc2c(OC(F)F)cc(C(=O)O)cc21 came out at 50 to 85%

Just so you know, measured bioavailability for Cn1c(CN2CCC(c3cccc(OCc4ccc(Cl)cc4F)n3)CC2)nc2c(OC(F)F)cc(C(=O)O)cc21 came out at > 85%

Just so you know, measured bioavailability for COc1cc(C(=O)O)cc2c1nc(CN1CCC(c3cccc4c3O[C@@](C)(c3ccc(Cl)cn3)O4)CC1)n2C came out at 25 to 50%

Just so you know, measured bioavailability for COc1cc(C(=O)O)cc2c1nc(N(C)[C@H]1CC[C@H](c3cccc4c3O[C@@](C)(c3ccc(Cl)cn3)O4)CC1)n2C[C@@H]1CCO1 came out at < 25%

Just so you know, measured bioavailability for Cn1c(CN2CCC(c3cccc(OCc4ccc(Cl)cc4F)n3)CC2)nc2c(OCF)cc(C(=O)O)cc21 came out at > 85%

###

biological target: human GLP-1R receptor (Homo sapiens, UniProt P43220); assay: GLP-1R low expression cell assay (cAMP TR-FRET, CHO-K1_hGLP-1Rlow_clone10 cells); conditions: cAMP TR-FRET, 30 min at 25° C.
measured parameter: EC50

Recorded EC50, per entry:
compound	EC50
CC(CO)Oc1cc(C(=O)O)cc2c1nc(CN1CCC(c3cccc(OCc4ccc(Cl)cc4F)n3)CC1)n2C (stereo not shown)	10 to 100 nM
Cn1c(CN2CCC(c3ccc(F)c(OCc4ccc(Cl)cc4F)c3)CC2)nc2c(OC(F)F)cc(C(=O)O)cc21	10 to 100 nM
O=C(O)c1cc(OC(F)F)c2nc(CN3CCC(c4cccc(OCc5ccc(Cl)cc5F)n4)CC3)n(CF)c2c1	10 to 100 nM
CCOc1cc(C(=O)O)cc2c1nc(CN1CCC(Oc3cccc(COc4ccc(Cl)cc4F)n3)CC1)n2C	< 10 nM
Cn1c(CN2CCC(c3ccc4c(c3)N(Cc3ccc(Cl)cc3F)C(=O)CO4)CC2)nc2c(OC(F)F)cc(C(=O)O)cc21	> 1000 nM
Cn1c(CN2CCC(c3cccc4c3O[C@H](c3ccc(Cl)cc3F)CO4)CC2)nc2c(OCCF)cc(C(=O)O)cc21	100 to 1000 nM
Cn1c(CN2CCC(c3cccc(OCc4ccc(Cl)cc4F)n3)CC2)nc2c(OC(F)F)nc(C(=O)O)cc21	10 to 100 nM
CCOc1cc(C(=O)O)cc2c1nc(CN1CCC(c3cccc4c3OC[C@H](c3ccc(C#N)cc3F)O4)CC1)n2C	> 1000 nM
COc1c(F)c(C(=O)O)cc2c1nc(CN1CCC(c3cccc(OCc4ccc(Cl)cc4F)n3)CC1)n2C	10 to 100 nM
Cn1c(CN2CCC(c3cccc(OCc4ccc(Cl)cc4F)n3)CC2)nc2c(OC(F)F)cc(-c3n[nH]c(=O)o3)cc21	> 1000 nM

Just so you know, measured EC50 for CC(=O)Oc1cc(C(=O)O)cc2c1nc(CN1CCC(c3cccc(OCc4ccc(C#N)cc4F)n3)CC1)n2C came out at 10 to 100 nM

Just so you know, measured EC50 for COc1cc(C(=O)O)cc2c1nc(CN1CCC(c3cccc4c3O[C@@H](c3ccc(C#N)cc3F)CO4)CC1)n2Cc1cncs1 came out at < 10 nM

Just so you know, measured EC50 for Cn1c(CN2CCC(c3cccc(OCc4ccc(C5CCCO5)cc4F)n3)CC2)nc2c(OC(F)F)cc(C(=O)O)cc21 (stereo not shown) came out at > 1000 nM

###

target: human GLP-1R receptor (Homo sapiens, UniProt P43220); test: GLP-1R low expression cell assay (cAMP TR-FRET, CHO-K1_hGLP-1Rlow_clone10 cells); conditions: cAMP TR-FRET, 30 min at 25° C.
measured parameter: EC50

Recorded EC50, per entry:
smiles input	measured parameter	result
Cn1c(CN2CCC(c3cccc(OCc4ccc(C(F)F)cc4F)n3)CC2)nc2c(OC(F)F)cc(C(=O)O)cc21	EC50	10 to 100 nM
Cn1c(CN2CCC(c3cccc(OCc4ccc(Cl)cc4OC(F)F)n3)CC2)nc2c(OC(F)F)cc(C(=O)O)cc21	EC50	< 10 nM
CCCOc1cc(C(=O)O)cc2c1nc(CN1CCC(c3cccc(OCc4ccc(Cl)cc4F)n3)CC1)n2C	EC50	10 to 100 nM
COc1nc(C(=O)O)cc2c1nc(CN1CCC(c3cccc(OCc4ccc(Cl)cc4F)n3)CC1)n2C	EC50	10 to 100 nM

// below: EC50 requested for another compound
Just so you know, measured EC50 for COc1cc(C(=O)O)cc2nc(CN3CCC(c4cccc(OCc5ccc(Cl)cc5F)n4)CC3)n(CF)c12 came out at > 1000 nM

###

assay: Rat pharmacokinetics, oral dosing; type: in vivo, Sprague-Dawley rats; settings: male, Sprague-Dawley, oral dosing at 3 mg/kg, plasma
measured parameter: Cmax

Recorded Cmax, per entry:
molecule	Cmax
Cn1c(CN2CCC(c3cccc(OCc4ccc(Cl)cc4F)n3)CC2)nc2c(OCF)cc(C(=O)O)cc21 [Compound 225]	2000 to 5000 ng/mL
COc1cc(C(=O)O)cc2c1nc(CN1CCC(c3cccc(OCc4ccc(C#N)cc4F)n3)CC1)n2C[C@@H]1CCO1 [Compound 8]	< 500 ng/mL
COc1cc(C(=O)O)cc2c1nc(N(C)[C@H]1CC[C@H](c3cccc4c3O[C@@](C)(c3ccc(Cl)cn3)O4)CC1)n2C[C@@H]1CCO1 [Compound 80]	< 500 ng/mL
C[C@]1(c2ccc(Cl)cn2)Oc2cccc(C3CCN(Cc4nc5c(OC6COC6)cc(C(=O)O)cc5n4C[C@@H]4CCO4)CC3)c2O1 [Compound 72]	< 500 ng/mL
COc1cc(C#N)ccc1COc1cccc(C2CCN(Cc3nc4c(OC(F)F)cc(C(=O)O)cc4n3C)CC2)n1 [Compound 156]	2000 to 5000 ng/mL

Just so you know, measured Cmax for COc1cc(C(=O)O)cc2c1nc(CN1CCC(c3cccc4c3O[C@@](C)(c3ccc(Cl)cn3)O4)CC1)n2C [Compound 85] came out at 1000 to 2000 ng/mL

Just so you know, measured Cmax for COc1cc(C(=O)O)c(F)c2c1nc(CN1CCC(c3cccc(OCc4ccc(C#N)cc4F)n3)CC1)n2C [Compound 303] came out at 500 to 1000 ng/mL

Just so you know, measured Cmax for Cn1c(CN2CCC(c3ccc(F)c(OCc4ccc(Cl)cc4F)c3)CC2)nc2c(OC(F)F)cc(C(=O)O)cc21 [Compound 216] came out at > 5000 ng/mL
